Each recorded value in this set is attributed to patent US11090319B2.

Items are presented alongside their recorded IC50.
molecular target: various β-lactamases (bacterial lysates) (Salmonella typhimurium, UniProt P0A1V8); experiment: biochemical; details: AZT IC50 KPX1001 OXA-2
Sequence (P0A1V8 22-275): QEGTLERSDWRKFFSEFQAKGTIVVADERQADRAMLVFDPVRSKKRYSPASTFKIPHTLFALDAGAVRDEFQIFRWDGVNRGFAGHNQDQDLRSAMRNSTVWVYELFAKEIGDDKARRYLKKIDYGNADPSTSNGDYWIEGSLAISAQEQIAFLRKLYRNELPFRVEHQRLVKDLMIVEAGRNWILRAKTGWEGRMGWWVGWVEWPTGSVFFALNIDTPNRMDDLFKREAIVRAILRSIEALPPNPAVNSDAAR

compound | IC50
C[C@]1(Cn2ccnn2)[C@H](C(=O)N[C@H]2CC[C@@H](CC(=O)O)OB2O)N2C(=O)C[C@H]2S1(=O)=O | 1.1 to 4.39 µM
O=C(O)C[C@@H]1CC[C@H](NC(=O)Cc2cccs2)B(O)O1 | < 1.68 µM
O=C(O)C[C@@H]1CC[C@H](NC(=O)Cc2ccccn2)B(O)O1 | > 6.85 µM
Nc1nc(/C(=N/OCc2cc(=O)c(O)cn2O)C(=O)N[C@H]2CC[C@@H](CC(=O)O)OB2O)cs1 | > 4.16 µM
N=C(N)NCCC[C@@H](N)C(=O)N[C@H]1CC[C@@H](CC(=O)O)OB1O | > 6.08 µM
CO/N=C(\C(=O)N[C@H]1CC[C@@H](CC(=O)O)OB1O)c1csc(N)n1 | < 1.4 µM
O=C(O)C[C@@H]1CC[C@H](NC(=O)c2cn(C3CC3)c3cc(N4CCNCC4)c(F)cc3c2=O)B(O)O1 | > 4.11 µM
NCCC(=O)N[C@H]1CC[C@@H](CC(=O)O)OB1O | > 8.19 µM
O=C(O)C[C@@H]1CC[C@H](NC(=O)Cc2cccnc2)B(O)O1 | 1.71 to 6.85 µM
O=C(O)CC1CC[C@H](NC(=O)C2CC2)B(O)O1 (some centres unmarked) | > 8.3 µM
CSCCC(N)C(=O)N[C@H]1CC[C@@H](CC(=O)O)OB1O (some centres unmarked) | > 6.58 µM
NCCSCC(=O)N[C@H]1CC[C@@H](CC(=O)O)OB1O | 1.72 to 6.89 µM
Nc1nc(CC(=O)N[C@H]2CC[C@@H](CC(=O)O)OB2O)cs1 | 1.6 to 6.39 µM
O=C(O)C[C@@H]1CC[C@H](NC(=O)Cc2ccccc2)B(O)O1 | 1.72 to 6.87 µM
O=C(O)C[C@@H]1CC[C@H](NC(=O)c2ccc(Cn3cnnn3)cc2)B(O)O1 | 1.39 to 5.57 µM
N[C@@H](CCC(=O)N[C@H]1CC[C@@H](CC(=O)O)OB1O)C(=O)O | > 6.62 µM
O=C(O)C[C@@H]1CC[C@H](NC(=O)C[C@@H]2CCCCN2)B(O)O1 | 1.68 to 6.71 µM

====

Reported IC50 is given for each of the following compounds.
molecular target: various β-lactamases (bacterial lysates) (Pseudomonas aeruginosa, UniProt P14489); assay: biochemical; settings: AZT IC50 KP1007 OXA-10
Sequence (P14489 20-266): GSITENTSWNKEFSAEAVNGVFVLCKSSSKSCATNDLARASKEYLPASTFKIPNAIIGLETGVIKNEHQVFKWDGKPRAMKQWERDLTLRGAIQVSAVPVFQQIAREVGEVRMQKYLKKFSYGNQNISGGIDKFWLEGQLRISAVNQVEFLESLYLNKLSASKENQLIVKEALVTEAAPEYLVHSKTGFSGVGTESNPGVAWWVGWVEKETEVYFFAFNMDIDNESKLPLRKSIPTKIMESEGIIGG
value.kind: IC50

compound | target.entity | endpoint.result
Cc1nc2ccccc2n1CCC(=O)N[C@H]1CC[C@@H](CC(=O)O)OB1O | various β-lactamases (bacterial lysates) (Pseudomonas aeruginosa, UniProt P14489) | > 5.57 µM
Nc1nc(/C(=N/OCc2cc(=O)c(O)cn2O)C(=O)N[C@H]2CC[C@@H](CC(=O)O)OB2O)cs1 | various β-lactamases (bacterial lysates) (Pseudomonas aeruginosa, UniProt P14489) | > 4.16 µM
O=C(O)C[C@@H]1CC[C@H](NC(=O)Cc2ccncc2)B(O)O1 | various β-lactamases (bacterial lysates) (Pseudomonas aeruginosa, UniProt P14489) | > 6.85 µM
Nc1nc(CC(=O)N[C@H]2CC[C@@H](CC(=O)O)OB2O)cs1 | various β-lactamases (bacterial lysates) (Pseudomonas aeruginosa, UniProt P14489) | > 6.39 µM
O=C(O)C[C@@H]1CC[C@H](NC(=O)c2ccc(Cn3cnnn3)cc2)B(O)O1 | various β-lactamases (bacterial lysates) (Pseudomonas aeruginosa, UniProt P14489) | > 5.57 µM
C[C@]1(Cn2ccnn2)[C@H](C(=O)N[C@H]2CC[C@@H](CC(=O)O)OB2O)N2C(=O)C[C@H]2S1(=O)=O | various β-lactamases (bacterial lysates) (Pseudomonas aeruginosa, UniProt P14489) | > 4.39 µM
NCCC(=O)N[C@H]1CC[C@@H](CC(=O)O)OB1O | various β-lactamases (bacterial lysates) (Pseudomonas aeruginosa, UniProt P14489) | > 8.19 µM
O=C(O)C[C@@H]1CC[C@H](NC(=O)C[C@@H]2CCCCN2)B(O)O1 | various β-lactamases (bacterial lysates) (Pseudomonas aeruginosa, UniProt P14489) | > 6.71 µM
O=C(O)C[C@@H]1CC[C@H](NC(=O)Cc2cccs2)B(O)O1 | various β-lactamases (bacterial lysates) (Pseudomonas aeruginosa, UniProt P14489) | > 6.73 µM
N[C@@H](CCC(=O)N[C@H]1CC[C@@H](CC(=O)O)OB1O)C(=O)O | various β-lactamases (bacterial lysates) (Pseudomonas aeruginosa, UniProt P14489) | > 6.62 µM
CO/N=C(\C(=O)N[C@H]1CC[C@@H](CC(=O)O)OB1O)c1csc(N)n1 | various β-lactamases (bacterial lysates) (Pseudomonas aeruginosa, UniProt P14489) | 1.4 to 5.62 µM
O=C(O)[C@H]1/C(=C/CO)O[C@@H]2CC(=O)N21 [Clavulanic Acid, reference compound] | various β-lactamases (bacterial lysates) (Pseudomonas aeruginosa, UniProt P14489) | 7.43 µM
CC(C)(O/N=C(\C(=O)N[C@H]1CC[C@@H](CC(=O)O)OB1O)c1csc(N)n1)C(=O)O | various β-lactamases (bacterial lysates) (Pseudomonas aeruginosa, UniProt P14489) | > 4.67 µM
Nc1cc(CC(=O)N[C@H]2CC[C@@H](CC(=O)O)OB2O)ccn1 | various β-lactamases (bacterial lysates) (Pseudomonas aeruginosa, UniProt P14489) | > 6.51 µM
N[C@H](C(=O)N[C@H]1CC[C@@H](CC(=O)O)OB1O)c1ccccc1 | various β-lactamases (bacterial lysates) (Pseudomonas aeruginosa, UniProt P14489) | > 6.53 µM
NC(Cc1cccnc1)C(=O)N[C@H]1CC[C@@H](CC(=O)O)OB1O (stereo partly drawn) | various β-lactamases (bacterial lysates) (Pseudomonas aeruginosa, UniProt P14489) | > 6.23 µM
O=C(O)C[C@@H]1CC[C@H](NC(=O)Cc2ccccc2)B(O)O1 | various β-lactamases (bacterial lysates) (Pseudomonas aeruginosa, UniProt P14489) | > 6.87 µM
O=C(O)C[C@@H]1CC[C@H](NC(=O)c2cn(C3CC3)c3cc(N4CCNCC4)c(F)cc3c2=O)B(O)O1 | various β-lactamases (bacterial lysates) (Pseudomonas aeruginosa, UniProt P14489) | > 4.11 µM
O=C(O)CC1CCC[C@H](NC(=O)Cc2cccs2)B(O)O1 (stereo partly drawn) | various β-lactamases (bacterial lysates) (Pseudomonas aeruginosa, UniProt P14489) | > 6.43 µM
O=C(O)C[C@@H]1CC[C@H](NC(=O)Cc2cc(F)cc(F)c2)B(O)O1 | various β-lactamases (bacterial lysates) (Pseudomonas aeruginosa, UniProt P14489) | > 6.11 µM
CC(=O)N[C@H]1CCC(CC(=O)O)OB1O (stereo partly drawn) | various β-lactamases (bacterial lysates) (Pseudomonas aeruginosa, UniProt P14489) | > 9.3 µM
O=C(O)C[C@@H]1CC[C@H](NC(=O)CCc2ccccc2)B(O)O1 | various β-lactamases (bacterial lysates) (Pseudomonas aeruginosa, UniProt P14489) | > 6.55 µM
O=C(O)C[C@@H]1CC[C@H](NC(=O)[C@@H]2CCCCN2)B(O)O1 | various β-lactamases (bacterial lysates) (Pseudomonas aeruginosa, UniProt P14489) | > 7.04 µM
O=C(O)C[C@@H]1CC[C@H](NC(=O)CCc2nnc(-c3ccccc3)o2)B(O)O1 | various β-lactamases (bacterial lysates) (Pseudomonas aeruginosa, UniProt P14489) | > 5.36 µM
O=C(O)CC1CC[C@H](NC(=O)C2CC2)B(O)O1 (stereo partly drawn) | various β-lactamases (bacterial lysates) (Pseudomonas aeruginosa, UniProt P14489) | > 8.3 µM
N[C@H]1CC[C@@H](CC(=O)N[C@H]2CC[C@@H](CC(=O)O)OB2O)CC1 | various β-lactamases (bacterial lysates) (Pseudomonas aeruginosa, UniProt P14489) | > 6.41 µM
O=C(O)C[C@@H]1CC[C@H](NC(=O)C[C@H]2CCCCN2)B(O)O1 | various β-lactamases (bacterial lysates) (Pseudomonas aeruginosa, UniProt P14489) | > 6.71 µM

====

# Lookup of reported IC50 keyed by entry
molecular target: various β-lactamases (bacterial lysates) (Klebsiella pneumoniae, UniProt Q9F663, H272Y); test: biochemical
Sequence (Q9F663 whole entry H272Y, looked up): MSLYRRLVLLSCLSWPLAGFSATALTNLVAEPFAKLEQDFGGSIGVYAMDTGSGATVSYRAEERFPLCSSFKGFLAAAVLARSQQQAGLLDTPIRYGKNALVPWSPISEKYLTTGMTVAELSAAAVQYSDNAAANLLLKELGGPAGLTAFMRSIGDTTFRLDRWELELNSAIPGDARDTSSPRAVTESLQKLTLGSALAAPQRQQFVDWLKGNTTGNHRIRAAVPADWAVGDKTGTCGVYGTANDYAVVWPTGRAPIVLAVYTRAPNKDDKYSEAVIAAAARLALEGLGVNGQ

compound | IC50
NCCSCC(=O)N[C@H]1CC[C@@H](CC(=O)O)OB1O | < 1720 nM
O=C(O)C[C@@H]1CC[C@H](NC(=O)c2cn(C3CC3)c3cc(N4CCNCC4)c(F)cc3c2=O)B(O)O1 | < 1030 nM
NCCC(=O)N[C@H]1CC[C@@H](CC(=O)O)OB1O | < 2050 nM
O=C(O)C[C@@H]1CC[C@H](NC(=O)CCc2nnc(-c3ccccc3)o2)B(O)O1 | < 1340 nM
O=C(O)C[C@@H]1CC[C@H](NC(=O)Cc2ccccn2)B(O)O1 | < 1710 nM
NC(Cc1cccnc1)C(=O)N[C@H]1CC[C@@H](CC(=O)O)OB1O (some centres unmarked) | < 1560 nM
N[C@@H](CCC(=O)N[C@H]1CC[C@@H](CC(=O)O)OB1O)C(=O)O | < 1660 nM
CC(=O)N[C@H]1CCC(CC(=O)O)OB1O (some centres unmarked) | < 2330 nM
O=C(O)C[C@@H]1CC[C@H](NC(=O)Cn2ccnc2-c2ccccc2)B(O)O1 | < 1400 nM
Nc1cc(CC(=O)N[C@H]2CC[C@@H](CC(=O)O)OB2O)ccn1 | < 1630 nM
C[C@]1(Cn2ccnn2)[C@H](C(=O)N[C@H]2CC[C@@H](CC(=O)O)OB2O)N2C(=O)C[C@H]2S1(=O)=O | 1100 to 4390 nM
CO/N=C(\C(=O)N[C@H]1CC[C@@H](CC(=O)O)OB1O)c1csc(N)n1 | 1400 to 5620 nM
O=C(O)[C@H]1/C(=C/CO)O[C@@H]2CC(=O)N21 [Clavulanic Acid, reference compound] | 7430 nM
O=C(O)CC1CC[C@H](NC(=O)C2CC2)B(O)O1 (some centres unmarked) | < 2070 nM
CC(C)(O/N=C(\C(=O)N[C@H]1CC[C@@H](CC(=O)O)OB1O)c1csc(N)n1)C(=O)O | < 1170 nM
N[C@H]1CC[C@@H](CC(=O)N[C@H]2CC[C@@H](CC(=O)O)OB2O)CC1 | < 1600 nM
NC1(CC(=O)N[C@H]2CC[C@@H](CC(=O)O)OB2O)CCCCC1 | < 1600 nM
